test: in vitro; settings: African green monkey, % Cell Viability, Vero E6, 30 h
readout type: viability at 10 µM

Name the reported viability at 10 µM value associated with the molecule `CCC(CC)COC(=O)[C@H](C)N[P@](=O)(OC[C@H]1O[C@@](C#N)(c2ccc3c(N)ncnn23)[C@H](O)[C@@H]1O)Oc1ccccc1`
> 99%

====

Provide the reported CC50 at 6 days of each item.
assay: in vitro; settings: human, MRC-5 cells (human lung fibroblasts), uninfected

Need CC50 at 6 days, item Cc1cc2nc3c(=O)[nH]c(=O)nc-3n(C[C@H](O)[C@H](O)[C@H](O)COP(=O)(O)OP(=O)(O)OC[C@H]3O[C@@H](n4cnc5c(N)ncnc54)[C@H](O)[C@@H]3O)c2cc1C [FAD, Flavin adenine dinucleotide]
> 1200 µM

Recorded CC50 at 6 days of `OC[C@@H](O)[C@@H](O[C@@H]1O[C@H](CO)[C@H](O)[C@H](O)[C@H]1O)[C@H](O)[C@@H](O)CO` , please.
> 2900 µM

API: the following record is the query input.
What value of CC50 at 6 days has been recorded for this entry: OC(c1cc(C(F)(F)F)nc2c(C(F)(F)F)cccc12)C1CCCCN1 (stereo not drawn)
173 µM

====

experiment: in vitro; settings: human
readout type: CC50 at 6 days (µM)
Answers are plain numbers, in µM.

Looking for the measured CC50 at 6 days of NC(=O)c1nc(F)c[nH]c1=O [Favipiravir] , can you help?
665

Could you tell me which CC50 at 6 days is on file for Cc1cccc(C)c1OCC(=O)N[C@@H](Cc1ccccc1)[C@@H](O)C[C@H](Cc1ccccc1)NC(=O)[C@H](C(C)C)N1CCCNC1=O [Lopinavir] ?
67

Note: attention shifts to another entry.
Record request: CC50 at 6 days value, item Cc1ccc(N)cc1C(=O)N[C@H](C)c1cccc2ccccc12 [GRL0617]
137

====

experiment: in vitro; conditions: human
readout type: CC50 (µM)
Numbers only, in µM.

Name the reported CC50 value associated with the molecule `C[C@@H]1O[C@@H](OC[C@H]2O[C@@H](Oc3c(-c4ccc(O)c(O)c4)oc4cc(O)cc(O)c4c3=O)[C@H](O)[C@@H](O)[C@@H]2O)[C@H](O)[C@H](O)[C@H]1O`
351

====

system: HCoV-229E; experiment: MTT-based antiviral assay (protection from virus-induced CPE) in HCoV-229E-infected MRC-5 cells; type: cell-based, Human Coronavirus strain 229E; settings: HCoV-229E-infected MRC-5, 6 days, range over the assay conc. range of each compound
Kindly state % Antiviral Activity (Range) for each of the entries shown.

Example compounds with recorded % Antiviral Activity (Range):
Sample `C[C@@H]1O[C@@H](OC[C@H]2O[C@@H](Oc3c(-c4ccc(O)c(O)c4)oc4cc(O)cc(O)c4c3=O)[C@H](O)[C@@H](O)[C@@H]2O)[C@H](O)[C@H](O)[C@H]1O` — what was its % Antiviral Activity (Range)?
-1.1 to +37.1%

Data request, read-out % Antiviral Activity (Range), for `Cc1ccc(N)cc1C(=O)N[C@H](C)c1cccc2ccccc12`
-1.9 to +33.7%

Give its % Antiviral Activity (Range) value. Item: C[C@H]1O[C@H](O[C@H]2[C@H](O)[C@@H](O)[C@@H](O[C@H]3[C@H](O)[C@@H](O)C(O)O[C@@H]3CO)O[C@@H]2CO)[C@H](O)[C@@H](O)[C@@H]1N[C@H]1C=C(CO)[C@@H](O)[C@H](O)[C@H]1O (stereo partly drawn)
+0.3 to +7.2%

I would be grateful if you could share the reported % Antiviral Activity (Range) for OC(c1cc(C(F)(F)F)nc2c(C(F)(F)F)cccc12)C1CCCCN1 (stereo not drawn) .
-0.4 to +60.6%

# get_value(readout='% Antiviral Activity (Range)', item= `OC[C@@H](O)[C@@H](O[C@@H]1O[C@H](CO)[C@H](O)[C@H](O)[C@H]1O)[C@H](O)[C@@H](O)CO` )
-1.2 to +5.3%

Take each entry in turn and give its % Antiviral Activity (Range).
1. Cc1cc2nc3c(=O)[nH]c(=O)nc-3n(C[C@H](O)[C@H](O)[C@H](O)COP(=O)(O)OP(=O)(O)OC[C@H]3O[C@@H](n4cnc5c(N)ncnc54)[C@H](O)[C@@H]3O)c2cc1C [FAD, Flavin adenine dinucleotide]
2. Cc1cccc(C)c1OCC(=O)N[C@@H](Cc1ccccc1)[C@@H](O)C[C@H](Cc1ccccc1)NC(=O)[C@H](C(C)C)N1CCCNC1=O
3. NC(=O)c1nc(F)c[nH]c1=O
4. CC(C)c1nc(CN(C)C(=O)N[C@H](C(=O)N[C@@H](Cc2ccccc2)C[C@H](O)[C@H](Cc2ccccc2)NC(=O)OCc2cncs2)C(C)C)cs1

-1.3 to +8.1%
-6.3 to +72.4%
-0.6 to +26.9%
-3.8 to +36.4%
